- ASSAY DETAILS: The drug is tested on WLS-073 corresponding to human gut metagenome with ENA study accession number: PRJEB37062 and ENA sample accession number: ERS12561749 for biotransformation under anaerobic condition. The drug concentrations were measured over 9 timepoints collected between 0 and 24 hours of incubation by liquid-chromatography-coupled mass spectrometry (LC–MS); also: call rule not given here
- APPLIED CONDITIONS: 2 µM
ENDPOINT: Bacterial Biotransformation

Quick one: Bacterial Biotransformation for COc1ccnc(C[S+]([O-])c2nc3ccc(OC(F)F)cc3[nH]2)c1OC (stereo not given) [PANTOPRAZOLE] ?
Compound metabolized

Also CC(=O)OCC(=O)NCCCOc1cccc(CN2CCCCC2)c1 [ROXATIDINE ACETATE] , if possible.
Compound metabolized

Also COc1ccc(C(CN(C)C)C2(O)CCCCC2)cc1 (stereo not given) [VENLAFAXINE] , if possible.
Compound NOT metabolized

Also c1ccc2[nH]c(-c3cscn3)nc2c1 [THIABENDAZOLE] , if possible.
Compound NOT metabolized

Continuing:
Quick one: Bacterial Biotransformation for CCN(C(C)=O)c1cccc(-c2ccnc3c(C#N)cnn23)c1 [ZALEPLON] ?
Compound metabolized
